tested_system: N-terminally FLAG-tagged PARP2 (amino acids 1-583) (Homo sapiens, UniProt Q9UGN5)
Construct: N-terminally FLAG-tagged PARP2 (amino acids 1-583)
Sequence (Q9UGN5 whole entry, the tested form may be a part): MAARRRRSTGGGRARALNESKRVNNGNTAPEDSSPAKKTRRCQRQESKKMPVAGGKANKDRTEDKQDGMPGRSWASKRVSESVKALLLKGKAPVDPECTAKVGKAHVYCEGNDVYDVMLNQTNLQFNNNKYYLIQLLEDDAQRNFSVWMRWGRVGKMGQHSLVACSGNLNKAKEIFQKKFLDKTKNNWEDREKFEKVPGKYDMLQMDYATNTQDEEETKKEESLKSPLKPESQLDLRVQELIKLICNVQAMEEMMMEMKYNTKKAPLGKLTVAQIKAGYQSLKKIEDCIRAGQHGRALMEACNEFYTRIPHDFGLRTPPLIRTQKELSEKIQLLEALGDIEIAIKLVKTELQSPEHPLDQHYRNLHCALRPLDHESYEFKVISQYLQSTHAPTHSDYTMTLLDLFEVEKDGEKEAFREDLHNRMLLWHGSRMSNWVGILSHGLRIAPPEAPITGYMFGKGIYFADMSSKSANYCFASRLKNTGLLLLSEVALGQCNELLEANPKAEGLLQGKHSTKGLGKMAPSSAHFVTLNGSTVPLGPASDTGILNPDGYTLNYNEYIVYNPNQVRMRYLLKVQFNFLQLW
method_notes: PARP2 probe displacement HTRF assay
Type: binding
settings: binned Kd, probe displacement HTRF
In this section we review reported Kd values for a set of compounds.

Use the examples below as a reference point.
Indicate its recorded Kd; the compound in question is CNC(=O)c1ccc(N2CCC(N3CCC(c4cc5c(F)cncc5c(=O)[nH]4)C3)CC2)c(F)n1 (single isomer, unassigned) [Compound 343a] 100 to 1000 nM

Indicate its recorded Kd; the compound in question is CCCc1ccc(C2CCN(C3CCN(c4ccc(C(=O)NC)nc4F)CC3)C2)[nH]c1=O (single isomer, unassigned) [Compound 269a] 1000 to 10000 nM

Indicate its recorded Kd; the compound in question is CNC(=O)c1ccc(N2CCC(N3CCC(c4nc5ccc(F)c(F)c5c(=O)[nH]4)C3)CC2)cn1 (single isomer, unassigned) [Compound 222b] 10 to 100 nM

Indicate its recorded Kd; the compound in question is CNC(=O)c1ccc(N2CCC(N3CCC(c4ccc(CCOC)c(=O)[nH]4)C3)CC2)cn1 (single isomer, unassigned) [Compound 240a] > 10000 nM

Others:
Indicate its recorded Kd; the compound in question is `CNC(=O)c1ccc(N2CCC(N3CC4(c5nc6ncccc6c(=O)[nH]5)CC3C4)CC2)cn1` 1000 to 10000 nM

Indicate its recorded Kd; the compound in question is `CNC(=O)c1ccc(N2CCC(N3CC4(c5nc6ccc(F)cc6c(=O)[nH]5)CC3C4)CC2)c(F)n1` 100 to 1000 nM

###

In this section we review reported pKd values for a set of molecules.
tested_system: full length N-terminally FLAG-tagged PARP1 (Homo sapiens, UniProt P09874)
Sequence (P09874 whole entry): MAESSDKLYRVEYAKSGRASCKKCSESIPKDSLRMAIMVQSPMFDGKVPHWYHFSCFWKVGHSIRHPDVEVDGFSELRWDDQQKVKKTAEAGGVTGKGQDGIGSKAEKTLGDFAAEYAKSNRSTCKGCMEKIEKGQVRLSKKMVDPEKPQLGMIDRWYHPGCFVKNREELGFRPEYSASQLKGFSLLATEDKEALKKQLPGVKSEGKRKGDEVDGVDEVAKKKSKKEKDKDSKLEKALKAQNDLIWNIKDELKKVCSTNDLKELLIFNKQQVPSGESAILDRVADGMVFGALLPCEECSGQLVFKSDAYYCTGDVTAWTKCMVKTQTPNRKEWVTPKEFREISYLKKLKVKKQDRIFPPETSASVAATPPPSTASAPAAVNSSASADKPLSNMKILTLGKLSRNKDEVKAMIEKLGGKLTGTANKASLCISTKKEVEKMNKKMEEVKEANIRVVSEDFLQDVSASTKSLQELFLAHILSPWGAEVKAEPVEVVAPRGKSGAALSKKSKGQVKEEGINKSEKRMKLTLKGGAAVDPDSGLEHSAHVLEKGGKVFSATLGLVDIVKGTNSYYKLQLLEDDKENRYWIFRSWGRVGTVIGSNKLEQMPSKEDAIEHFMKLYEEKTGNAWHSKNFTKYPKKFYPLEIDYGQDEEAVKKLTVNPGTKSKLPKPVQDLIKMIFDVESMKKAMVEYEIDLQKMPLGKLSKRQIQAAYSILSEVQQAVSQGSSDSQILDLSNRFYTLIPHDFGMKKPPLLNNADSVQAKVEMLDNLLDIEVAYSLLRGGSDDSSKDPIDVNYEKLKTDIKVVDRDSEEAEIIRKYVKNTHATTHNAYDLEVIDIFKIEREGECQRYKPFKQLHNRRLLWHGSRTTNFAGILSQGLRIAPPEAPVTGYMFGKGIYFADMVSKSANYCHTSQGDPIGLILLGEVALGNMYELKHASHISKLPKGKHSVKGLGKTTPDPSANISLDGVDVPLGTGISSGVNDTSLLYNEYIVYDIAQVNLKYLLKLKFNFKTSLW
method_notes: PARP1 probe displacement HTRF assay
settings: read-out: PARP1 HTRF; binned Kd, PARP1 probe displacement HTRF
pKd: −log10 of the molar value.

Fill in: pKd on full length N-terminally FLAG-tagged PARP1 (Homo sapiens, UniProt P09874), entry CNC(=O)c1cc(C)c(N2CCC(N3CCC(c4cc5ccccc5c(=O)[nH]4)C3)CC2)cn1 (racemic) > 8.00

Fill in: pKd on full length N-terminally FLAG-tagged PARP1 (Homo sapiens, UniProt P09874), entry CNC(=O)c1ccc(N2CCC(N3CCC(c4nc5c(c(C(F)(F)F)cn5C)c(=O)[nH]4)C3)CC2)cn1 (single isomer, unassigned) [Compound 170a] > 8.00

Fill in: pKd on full length N-terminally FLAG-tagged PARP1 (Homo sapiens, UniProt P09874), entry CNC(=O)c1ccc(N2CCC(N3CCC(c4nc5c(c(C(F)(F)F)nn5C)c(=O)[nH]4)C3)CC2)cn1 (single isomer, unassigned) [Compound 187b] > 8.00

Fill in: pKd on full length N-terminally FLAG-tagged PARP1 (Homo sapiens, UniProt P09874), entry CNC(=O)c1ccc(N2CCC(N3CCCC(c4nc5onc(C)c5c(=O)[nH]4)C3)CC2)cn1 (single isomer, unassigned) [Compound 159b] 6.00 to 7.00

Fill in: pKd on full length N-terminally FLAG-tagged PARP1 (Homo sapiens, UniProt P09874), entry CCc1nc(C(=O)NC)ccc1N1CCC(N2CCC(c3ccc(CC)c(=O)[nH]3)C2)CC1 (racemic) > 8.00

Fill in: pKd on full length N-terminally FLAG-tagged PARP1 (Homo sapiens, UniProt P09874), entry CNC(=O)c1ccc(N2CCC(N3CCOC(c4nc5ccccc5c(=O)[nH]4)C3)CC2)cn1 (single isomer, unassigned) [Compound 58b] 7.00 to 8.00

###

tested_system: PARP2 (Homo sapiens)
method_notes: NanoBRET cellular target occupancy assay, PARP2
settings: HEK293 cells transiently transfected with PARP2-NanoLuc fusion; tracer 2 nM; 2 hours at 37° C.; Kd by Cheng-Prussoff
pKd: −log10 of the molar value.
result_type: pKd

Indicate its recorded pKd; the molecule in question is `CCc1cnc(C23CC(C2)N(C2CCN(c4ccc(C(=O)NC)nc4)CC2)C3)[nH]c1=O` < 5.00

# evaluate next
Indicate its recorded pKd; the molecule in question is CNC(=O)c1ccc(N2CCC(N3CCC(c4cc5ncc(Cl)cc5c(=O)[nH]4)C3)CC2)cn1 (racemic) 5.00 to 6.00

###

tested_system: full length N-terminally FLAG-tagged PARP1 (Homo sapiens)
method_notes: PARP1 biochemical DELFIA assay (auto-PARylation)
Set-up: recombinant full length human N-terminally FLAG-tagged PARP1
settings: binned IC50, PARP1 biochemical DELFIA assay
pIC50: −log10 of the molar value.
result_type: pIC50

Use the examples below as a reference point.
Indicate its recorded pIC50; the compound in question is CNC(=O)c1ccc(N2CCC(N3CCC(c4cc5ccc(F)cc5c(=O)[nH]4)C3)CC2)c(F)n1 (racemic) [Compound 174rac] > 8.00

Indicate its recorded pIC50; the compound in question is `CNC(=O)c1ccc(N2CCC(CN3CCC(c4ncc(C)c(=O)[nH]4)CC3)CC2)cn1` 6.00 to 7.00

Indicate its recorded pIC50; the compound in question is CNC(=O)c1ccc(N2CCC(N3CCC(c4cc5c(Cl)cccc5c(=O)[nH]4)C3)CC2)cn1 (single isomer, unassigned) [Compound 137b] > 8.00

Indicate its recorded pIC50; the compound in question is `CNC(=O)c1ccc(N(C)CCCN2CCC(c3nc4ccccc4c(=O)[nH]3)CC2)cn1` 6.00 to 7.00

Indicate its recorded pIC50; the compound in question is O=c1[nH]c(C2CCCN(C3CCN(c4ccc(F)cc4F)CC3)C2)nc2ccccc12 (single isomer, unassigned) [Compound 113a] 6.00 to 7.00

Indicate its recorded pIC50; the compound in question is CNC(=O)c1ccc(N2CCC(N3CCC(c4ncc(C(F)(F)F)c(=O)[nH]4)C3)CC2)cn1 (single isomer, unassigned) [Compound 56a] 6.00 to 7.00

Indicate its recorded pIC50; the compound in question is CCc1ccc(C2CCN(C3CCN(c4cnc(C(=O)NC)cc4C)CC3)C2)[nH]c1=O (single isomer, unassigned) [Compound 217a] 6.00 to 7.00

Indicate its recorded pIC50; the compound in question is O=c1[nH]c(C2CCN(C3CCN(c4ccccc4)CC3)C2)nc2ccccc12 (single isomer, unassigned) [Compound 32a] 7.00 to 8.00

Indicate its recorded pIC50; the compound in question is CNC(=O)c1ccc(N2CCC(N3CCC(c4nc5c(c(C(F)(F)F)cn5C)c(=O)[nH]4)C3)CC2)cn1 (racemic) [Compound 170rac] > 8.00

Indicate its recorded pIC50; the compound in question is N#Cc1ccc(N2CCC(N3CCC(c4nc5ccccc5c(=O)[nH]4)C3)CC2)cc1 (single isomer, unassigned) [Compound 34a] 7.00 to 8.00

Others:
Indicate its recorded pIC50; the compound in question is CNC(=O)c1ccc(N2CCC(N3CCCC(c4nc5ccccc5c(=O)[nH]4)C3)CC2)c(C)n1 (single isomer, unassigned) [Compound 131a] 7.00 to 8.00

Indicate its recorded pIC50; the compound in question is CNC(=O)c1ccc(N2CCC(N3CCC(c4nc5[nH]nc(C(F)(F)F)c5c(=O)[nH]4)C3)CC2)cn1 (single isomer, unassigned) [Compound 162b] > 8.00

Indicate its recorded pIC50; the compound in question is CNC(=O)c1cnc(N2CCC(N3CCC(c4nc5ccccc5c(=O)[nH]4)C3)CC2)cn1 (single isomer, unassigned) [Compound 96a] 7.00 to 8.00

Indicate its recorded pIC50; the compound in question is CNC(=O)c1ncc(N2CCC(N3CCC(c4cc5cccc(F)c5c(=O)[nH]4)C3)CC2)cn1 (racemic) 7.00 to 8.00

Indicate its recorded pIC50; the compound in question is CNC(=O)c1ccc(N2CCC(N3CCC(c4cc5cccc(F)c5c(=O)[nH]4)C3)CC2)c(C)n1 (single isomer, unassigned) [Compound 206b] > 8.00

Indicate its recorded pIC50; the compound in question is CNC(=O)c1ccc(N2CC(N3CCCC(Cc4nc5ccccc5c(=O)[nH]4)C3)C2)cn1 (single isomer, unassigned) [Compound 51b] 5.00 to 6.00

Indicate its recorded pIC50; the compound in question is `CNC(=O)c1ccc(N2CCC(N3CC4CC(c5nc6ccccc6c(=O)[nH]5)(C4)C3)CC2)cn1` > 8.00

Indicate its recorded pIC50; the compound in question is CNC(=O)c1ccc(N2CCC(N3CCC(O)(c4nc5ccccc5c(=O)[nH]4)C3)CC2)cn1 (single isomer, unassigned) [Compound 140a] 6.00 to 7.00

Indicate its recorded pIC50; the compound in question is CNC(=O)c1ccc(F)c(N2CCC(N3CCCC(c4nc5ccccc5c(=O)[nH]4)C3)CC2)n1 (racemic) 6.00 to 7.00

Indicate its recorded pIC50; the compound in question is CNC(=O)c1ccc(N2CC(N3CCC(c4nc5ccccc5c(=O)[nH]4)C3)C2)cn1 (single isomer, unassigned) [Compound 61a] 6.00 to 7.00

Indicate its recorded pIC50; the compound in question is CNC(=O)c1ccc(N2CCC(N3CCCC(c4nc5ccccc5c(=O)[nH]4)CC3)CC2)cn1 (racemic) > 8.00

Indicate its recorded pIC50; the compound in question is CNC(=O)c1ccc(N2CCC(N3CCC(c4nc5c(F)cc(F)cc5c(=O)[nH]4)C3)CC2)cn1 (single isomer, unassigned) [Compound 181b] > 8.00

Indicate its recorded pIC50; the compound in question is CNC(=O)c1ccc(N2CCC(N3CCC(c4cc5ccccc5c(=O)[nH]4)C3)CC2)cn1 (single isomer, unassigned) [Compound 91b] > 8.00

Indicate its recorded pIC50; the compound in question is CNC(=O)c1ccc(N2CCC(N3CCC(c4nc5ccccc5c(=O)[nH]4)C3)CC2)c(C(F)(F)F)n1 (single isomer, unassigned) [Compound 139a] > 8.00

Indicate its recorded pIC50; the compound in question is `CCc1ccc(C2CCN(CC3CCN(c4ccc(C(=O)NC)nc4)CC3)CC2)[nH]c1=O` 6.00 to 7.00

Indicate its recorded pIC50; the compound in question is CNC(=O)c1ccc(N2CCC(N3CCCC(c4nc5c(F)cccc5c(=O)[nH]4)C3)CC2)cn1 (single isomer, unassigned) [Compound 114a] > 8.00
